# ASSAYED_SYSTEM: T1, CXCR4 (CXCR4-expressing HPB-ALL cells) (Homo sapiens, UniProt P61073)
# T1 construct: endogenous in cells; host or cells: HPB-ALL (human T cell leukemia)
# T1 sequence (P61073 whole entry): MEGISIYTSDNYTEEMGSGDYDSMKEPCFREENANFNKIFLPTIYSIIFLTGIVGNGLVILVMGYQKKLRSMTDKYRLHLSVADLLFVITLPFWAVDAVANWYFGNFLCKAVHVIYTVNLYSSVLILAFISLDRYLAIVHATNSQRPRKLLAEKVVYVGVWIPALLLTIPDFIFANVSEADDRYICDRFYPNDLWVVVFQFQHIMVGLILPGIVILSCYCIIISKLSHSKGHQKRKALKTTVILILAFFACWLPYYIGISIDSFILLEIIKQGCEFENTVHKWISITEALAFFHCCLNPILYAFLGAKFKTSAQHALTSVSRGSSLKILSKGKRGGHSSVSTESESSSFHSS
# TEST: Flow cytometry binding of humanized 3G10 Fabs to HPB-ALL cells (Example 2)
# APPLIED_CONDITIONS: Fab 2.5 μg/ml
So I've got a bunch of molecules here, and I need their MFI 2.5 μg/ml values.

IN: Give its MFI 2.5 μg/ml value. Item: h3G10.B44 VH/h3G10.A11 VL: Fab; VH SEQ ID NO:25, VL A11 (probably A11A, SEQ ID NO:51) (antibody, V domains shown, Fab) VH: EVQLVESGGGLVQPGGSLRLSCAASGFTFSDYYMSWVRQAPGKGLEWVSFIRHKANFYTTEYSTSVKGRFTISRDNSKNTLYLQMNSLRAEDTAVYYCAKDLPGFAYWGQGTLVTVSS VL: DIVMTQSPDSLAVSLGERATINCKSAQSLFNSRTRKNYLAWYQQKPGQPPKLLIYWASARESGVPDRFSGSGSGTDFTLTISSLQAEDVAVYYCKQSFRLRTFGGGTKVEIK
OUT: 8306

IN: Note, next up: h3G10.B44 VH/h3G10.B12 VL: Fab; VH SEQ ID NO:25, VL B12 (probably B12A, SEQ ID NO:61) (antibody, V domains shown) VH: EVQLVESGGGLVQPGGSLRLSCAASGFTFSDYYMSWVRQAPGKGLEWVSFIRHKANFYTTEYSTSVKGRFTISRDNSKNTLYLQMNSLRAEDTAVYYCAKDLPGFAYWGQGTLVTVSS VL: DIVMTQSPDSLAVSLGERATINCKSSQSLFNSRTRKNYLLWYQQKPGQPPKLLIYWASARESGVPDRFSGSGSGTDFTLTISSLQAEDVAVYYCKQSFRLRTFGGGTKVEIK
OUT: 8127
